In this section we review reported autophagy induction values for a set of compounds.
System: U2OS
assay details: Here: values are normalized to the negative (DMSO; defined as 0% autophagy induction) and positive (250nM Torin1; mTOR inhibitor; defined as maximal inducer of autophagy = 100%) control compounds and represented as % of autophagy induction. […] The impact of autophagy induction on cells is complex and depends on the affected target. As such, the magnitude of a phenotype may not be equally mirrored in the %-value of autophagy induction and vice versa. The dynamics of the induction may indicate the mode of activation: e.g. activation via phosphorylation or a signaling cascade may occur fast, while activation via transcription factors may take considerably longer. […] Of note, treatment concentrations may be sub-optimal for specific compounds, leading to false negative annotations.
Assay type: functional, Homo sapiens
applied conditions: Compound Concentration 0.5 uM, Timepoint 24 hours, Culturing Media DMEM, 1 % Penicillin/Streptomycin, 10% Fetal bovin serum Add-On: No, Screening Media Control DMEM, Screening Media Samples DMEM
metric: autophagy induction (%)

# compound, system tested, metric, observed result
data = [
    ("CN(C)S(=O)(=O)c1ccc(NC(=S)N2CCC(C(O)(c3ccccc3)c3ccccc3)CC2)cc1", "U2OS", "autophagy induction", 1.478),
    ("O=C(Nc1ccc(Cl)cc1)Nc1cccc(-c2cccc(N3CCCC3)n2)c1", "U2OS", "autophagy induction", -0.7352),
    ("N#Cc1c[nH]c2c(C(=O)N3CCN(CCc4ccc(F)cc4)CC3)cccc12", "U2OS", "autophagy induction", -3.235),
    ("Cc1c(OCc2cccc(-c3ccc(C(=O)O)cc3)c2)cc2c(c1C)C(=O)C(C1CCCC1)C2 (centres undefined)", "U2OS", "autophagy induction", -3.325),
    ("C[C@H](CO)Nc1nc(SCc2cccc(Cl)c2F)nc2[nH]c(=O)sc12", "U2OS", "autophagy induction", -1.036),
    ("CCCCC#Cc1nc(NC)c2ncn([C@@H]3O[C@H](CO)[C@@H](O)[C@H]3O)c2n1", "U2OS", "autophagy induction", 2.814),
    ("C[C@]1(C(=O)N(CCCC(=O)O)Cc2cccc(Cl)c2)CCN1C(=O)c1csc2ccccc12", "U2OS", "autophagy induction", 1.055),
    ("CC(C)NC(=O)c1ccc(C#Cc2ccncc2)cn1", "U2OS", "autophagy induction", -5.012),
    ("Cl.Clc1cccc(COc2cncc(N3CCNCC3)n2)c1", "U2OS", "autophagy induction", -1.5773),
]

src = ChEMBL document CHEMBL5724696
